# target_or_system: HiBit-BRG1 fusion protein (Homo sapiens)
# Construct: expressed in transfected cells
# Sequence (P51532 whole entry, the tested form may be a part): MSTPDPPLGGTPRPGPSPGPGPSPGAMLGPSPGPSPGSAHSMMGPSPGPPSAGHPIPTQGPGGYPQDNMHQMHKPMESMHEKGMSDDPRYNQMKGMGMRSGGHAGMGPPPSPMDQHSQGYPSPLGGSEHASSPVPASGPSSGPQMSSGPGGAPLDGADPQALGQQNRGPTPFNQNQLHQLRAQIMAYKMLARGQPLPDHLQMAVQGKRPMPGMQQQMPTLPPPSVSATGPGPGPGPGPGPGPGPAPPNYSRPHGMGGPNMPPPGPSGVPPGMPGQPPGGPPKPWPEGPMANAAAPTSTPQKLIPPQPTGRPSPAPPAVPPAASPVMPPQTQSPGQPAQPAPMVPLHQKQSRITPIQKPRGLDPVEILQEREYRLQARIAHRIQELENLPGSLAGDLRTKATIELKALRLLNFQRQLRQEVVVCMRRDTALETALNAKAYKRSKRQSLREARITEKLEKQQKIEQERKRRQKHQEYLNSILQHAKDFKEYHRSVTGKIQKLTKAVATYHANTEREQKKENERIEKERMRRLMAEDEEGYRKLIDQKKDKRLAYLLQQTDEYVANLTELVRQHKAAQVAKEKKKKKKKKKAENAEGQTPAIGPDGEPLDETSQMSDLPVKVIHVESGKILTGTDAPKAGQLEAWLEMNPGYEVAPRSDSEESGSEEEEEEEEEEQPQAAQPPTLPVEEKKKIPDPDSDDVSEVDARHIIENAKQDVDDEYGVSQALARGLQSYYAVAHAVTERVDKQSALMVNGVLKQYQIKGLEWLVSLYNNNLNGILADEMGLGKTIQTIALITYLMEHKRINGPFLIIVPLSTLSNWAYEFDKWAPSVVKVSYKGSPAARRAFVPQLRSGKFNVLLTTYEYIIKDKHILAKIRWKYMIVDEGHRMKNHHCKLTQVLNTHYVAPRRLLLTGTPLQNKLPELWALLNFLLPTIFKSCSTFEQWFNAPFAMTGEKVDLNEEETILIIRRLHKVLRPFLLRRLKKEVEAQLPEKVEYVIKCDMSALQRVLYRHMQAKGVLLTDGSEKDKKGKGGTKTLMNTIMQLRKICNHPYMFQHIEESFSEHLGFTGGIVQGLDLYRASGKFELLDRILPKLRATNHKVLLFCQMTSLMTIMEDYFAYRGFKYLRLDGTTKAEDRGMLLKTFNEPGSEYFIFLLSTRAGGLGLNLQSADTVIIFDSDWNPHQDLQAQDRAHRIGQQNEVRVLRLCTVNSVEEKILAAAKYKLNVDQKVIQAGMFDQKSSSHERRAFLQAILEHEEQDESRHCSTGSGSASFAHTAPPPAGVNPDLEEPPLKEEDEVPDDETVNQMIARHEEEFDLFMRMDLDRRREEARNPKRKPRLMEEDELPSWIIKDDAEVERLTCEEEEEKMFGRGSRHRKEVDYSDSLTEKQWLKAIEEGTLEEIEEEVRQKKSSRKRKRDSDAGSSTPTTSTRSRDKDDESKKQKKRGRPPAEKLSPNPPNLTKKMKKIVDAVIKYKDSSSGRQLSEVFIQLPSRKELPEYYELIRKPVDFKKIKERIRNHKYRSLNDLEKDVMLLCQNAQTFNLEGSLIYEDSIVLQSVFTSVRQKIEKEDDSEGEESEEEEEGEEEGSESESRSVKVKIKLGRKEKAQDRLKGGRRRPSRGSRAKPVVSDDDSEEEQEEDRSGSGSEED
# test_method_notes: HiBiT-BRG1 cell-based degradation assay (Nano-Glo HiBiT lytic detection, 24 h)
# run_parameters: HeLa cell line expressing HiBit-BRG1 and LgBit, read-out: BRG1 HiBit Degradation Maximum (%)
The following compounds are shown together with reported Dmax values.

In the examples that follow, each entry is paired with its recorded Dmax.
{"columns": ["compound", "measured_attribute", "data_value"],
 "data": [
  ["CC(C)[C@@H](C(=O)N1C[C@H](O)C[C@H]1C(=O)N[C@@H](C)c1ccc(F)cc1)c1cc(-c2cnc(N3CC[C@H](c4cc5nnc(-c6ccccc6O)cc5n4C4CC4)C3)nc2)no1 [Compound 92]", "Dmax", "< 50%"],
  ["Cc1ncsc1-c1ccc([C@H](C)NC(=O)[C@@H]2C[C@@H](O)CN2C(=O)[C@@H](c2cc(-c3cnc(N4CC[C@@H](c5cc6nnc(-c7ccccc7O)cc6n5C56CC(C5)C6)C4)nc3)no2)C(C)C)cc1 [Compound 94]", "Dmax", "< 50%"]
]}

Read the next record carefully.
// query For the compound shown here, Cc1ncsc1-c1ccc([C@H](C)NC(=O)[C@@H]2C[C@@H](O)CN2C(=O)[C@@H](c2cc(OCCN3CC(n4ccc5nnc(-c6ccccc6O)cc54)C3)no2)C(C)C)cc1 [Compound 31] , give the reported Dmax.
// result < 50%

Reference for the values: patent US20250302832A1
